Values were extracted from paper PMC11079024.

# Target or system: B. taurus (heart) complex I (Bos taurus, UniProt P03887+P17694+P42026)
# Sequence (P03887 whole entry): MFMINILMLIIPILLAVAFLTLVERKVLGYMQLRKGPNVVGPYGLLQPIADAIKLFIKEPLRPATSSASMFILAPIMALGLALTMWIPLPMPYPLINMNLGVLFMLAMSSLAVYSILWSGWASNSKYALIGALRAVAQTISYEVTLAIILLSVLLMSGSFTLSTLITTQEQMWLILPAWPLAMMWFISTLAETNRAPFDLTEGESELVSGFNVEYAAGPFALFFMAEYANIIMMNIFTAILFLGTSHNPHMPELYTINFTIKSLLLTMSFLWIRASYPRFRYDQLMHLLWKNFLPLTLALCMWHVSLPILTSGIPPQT
# Sequence (P17694 34-463): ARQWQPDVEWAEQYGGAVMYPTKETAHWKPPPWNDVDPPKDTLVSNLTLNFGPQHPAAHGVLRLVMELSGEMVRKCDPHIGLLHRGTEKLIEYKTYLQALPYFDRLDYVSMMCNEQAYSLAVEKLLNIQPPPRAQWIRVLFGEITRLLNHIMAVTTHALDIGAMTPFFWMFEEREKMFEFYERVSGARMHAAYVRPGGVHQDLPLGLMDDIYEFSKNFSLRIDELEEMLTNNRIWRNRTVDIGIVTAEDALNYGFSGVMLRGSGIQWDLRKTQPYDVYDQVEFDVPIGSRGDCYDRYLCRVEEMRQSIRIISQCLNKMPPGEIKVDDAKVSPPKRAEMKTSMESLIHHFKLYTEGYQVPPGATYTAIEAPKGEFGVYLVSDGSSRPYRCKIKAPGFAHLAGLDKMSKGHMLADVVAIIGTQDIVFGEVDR
# Sequence (P42026 38-216): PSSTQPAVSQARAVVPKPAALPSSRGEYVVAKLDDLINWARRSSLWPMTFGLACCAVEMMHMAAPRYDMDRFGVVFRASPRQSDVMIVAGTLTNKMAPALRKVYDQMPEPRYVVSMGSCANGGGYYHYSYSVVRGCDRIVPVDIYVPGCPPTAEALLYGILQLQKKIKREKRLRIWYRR
# Test method notes: biochemical
# Assay type: biochemical
# Condition parameters: Dose 1.5 µM; read-out: B. taurus mitochondrial complex I activity
With a cut-off of 80%, any activity at 1.5 µM strictly below it is called fulfilled; any activity at 1.5 µM meeting it or above is called not fulfilled.

stdin: Please state whether activity at 1.5 µM is below 80% for Cc1nc2ccccc2n1CCOc1ccccc1Cl [Compound 5561642]
stdout: fulfilled

stdin: Please state whether activity at 1.5 µM is below 80% for CC(C)Oc1cccc(OCCn2cnc3ccccc32)c1 [Compound 7926496]
stdout: fulfilled

stdin: Please state whether activity at 1.5 µM is below 80% for Clc1ccc(Cn2cnc3ccccc32)c(Cl)c1 [Compound 6750659]
stdout: fulfilled

stdin: Please state whether activity at 1.5 µM is below 80% for Nc1nc2ccccc2n1CCOc1ccc(Br)cc1 [Compound 5842535]
stdout: not fulfilled

stdin: Please state whether activity at 1.5 µM is below 80% for Clc1ccc(OCCn2cnc3ccccc32)c(Cl)c1 [Compound 7221649]
stdout: not fulfilled

stdin: Please state whether activity at 1.5 µM is below 80% for Cc1ccc(C(C)C)c(OCC(O)Cn2cnc3ccccc32)c1 (stereo not shown) [Compound 6093301]
stdout: fulfilled

stdin: Please state whether activity at 1.5 µM is below 80% for Cc1nc2ccccc2n1Cc1ccc(Cl)c(Cl)c1 [Compound 5655567]
stdout: fulfilled

stdin: Please state whether activity at 1.5 µM is below 80% for Cc1ccccc1OCCCCn1cnc2ccccc21 [Compound 7732524]
stdout: fulfilled

stdin: Please state whether activity at 1.5 µM is below 80% for Clc1ccc(Cn2cnc3ccccc32)cc1Cl [Compound 5571325]
stdout: not fulfilled

stdin: Please state whether activity at 1.5 µM is below 80% for CCc1cc(OCCn2cnc3ccccc32)ccc1Cl [Compound 7925288]
stdout: fulfilled
